assayed-system: Platypus Mel1C (Ornithorhynchus anatinus)
Sequence (A0A2P1K6N2 1-349): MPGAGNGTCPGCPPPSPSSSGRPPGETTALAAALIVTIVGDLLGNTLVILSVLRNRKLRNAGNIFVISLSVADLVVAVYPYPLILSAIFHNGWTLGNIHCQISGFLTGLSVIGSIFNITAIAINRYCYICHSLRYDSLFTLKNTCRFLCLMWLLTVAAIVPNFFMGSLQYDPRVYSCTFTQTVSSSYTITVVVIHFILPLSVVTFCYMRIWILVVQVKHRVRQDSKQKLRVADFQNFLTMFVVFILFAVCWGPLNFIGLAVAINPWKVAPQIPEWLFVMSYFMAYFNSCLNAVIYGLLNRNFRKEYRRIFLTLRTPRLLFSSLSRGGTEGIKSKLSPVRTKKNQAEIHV
experiment-description: 2-[125I]-iodomelatonin competition binding, membranes from stably transfected CHO cells, platypus Mel1c
test-conditions: membranes from stably transfected CHO cells; radioligand 2-[125I]-iodomelatonin; read-out: Platypus Mel1C (converted)
Cut-off 50 nM on Ki: below means 1, at or above means 0.

Worked examples, 5 molecules total:
> print(dat)
                                   molecule  assigned.label
1  COc1ccc(CCN(C)CCCC(C#N)(c2cc(OC)c(OC)c(OC)c2)C(C)C)cc1OC (stereo not drawn) [D600, methoxyverapamil]               0
2  COc1ccc2cccc(CCNC(C)=O)c2c1 [Agomelatin ®]               1
3      COc1ccc2[nH]cc(CCNC(=O)CI)c2c1 [SD6]               1
4  COc1ccc2cccc(C(CO)CNC(=O)CF)c2c1 (stereo not drawn) [S75436]               1
5  COc1cc2c(CCNC(C)=O)c(I)[nH]c2cc1[N+](=O)[O-] [S27128]               1

Query string: Please let me know if COc1ccc2ncn(CCNC(C)=O)c2c1 [S21278] shows Ki below 50 nM.
Result string: 0

Query string: Please let me know if O=C(NCCc1cccc2ccccc12)C1CCC1 [S20928] shows Ki below 50 nM.
Result string: 0

Query string: Please let me know if CC(=O)NCCc1c(Cc2ccccc2)[nH]c2ccccc12 [Luzindole, N-acetyl-2-benzyltryptamine] shows Ki below 50 nM.
Result string: 0
